test system: HL-60; experiment: MTT cytotoxicity, HL-60; format: cell-based; conditions: HL-60, human acute promyelocytic leukemia, 12 h exposure, mean±SD of three trials
endpoint.label: pIC50
The meaning of pIC50 here: minus log10 of the concentration in molar units.

Query: Form: Entry = C=Cc1c(C=O)c2cc3nc(c4c5[nH]c(cc6nc(cc1[nH]2)C(C)=C6CC)c(C)c5C(=O)C4C(=O)OCC)C(CCC(=O)OC)C3C (stereo not shown) [Tecomaphorbide] | System = HL-60 | pIC50 = ____
Result: 6.34
